tgt: human recombinant core 2/4 β1,6-GlcNAc-transferase (C2GnT2) (Homo sapiens, UniProt O95395)
Sequence (O95395 27-438): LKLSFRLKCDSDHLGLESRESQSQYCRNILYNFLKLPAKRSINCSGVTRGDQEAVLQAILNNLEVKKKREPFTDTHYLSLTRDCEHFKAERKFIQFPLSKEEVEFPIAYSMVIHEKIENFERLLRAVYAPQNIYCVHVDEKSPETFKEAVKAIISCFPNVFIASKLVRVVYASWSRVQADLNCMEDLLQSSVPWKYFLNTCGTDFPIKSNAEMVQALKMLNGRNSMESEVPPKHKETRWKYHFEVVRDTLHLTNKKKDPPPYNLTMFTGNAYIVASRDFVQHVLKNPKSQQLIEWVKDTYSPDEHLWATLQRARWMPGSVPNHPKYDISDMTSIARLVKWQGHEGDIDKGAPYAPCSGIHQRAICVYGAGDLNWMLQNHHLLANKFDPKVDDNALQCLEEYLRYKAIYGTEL
Type: biochemical
condition_description: acceptor substrate 0.5 mM; 0.5 mM Galβ1–3GalNAcα-pnp set to 100%
Marks after values point to notes of the source that are not given here.
Recorded C2GnT2 activity (%) values for a group of molecules are listed next.

CC(=O)N[C@H]1[C@@H](OCc2ccccc2)O[C@H](CO)C[C@@H]1O[C@@H]1O[C@H](CO)[C@H](O)[C@H](O)[C@H]1O [Galβ1–3(4-deoxy)GalNAcα-Bn]: <1%
CC(=O)N[C@H]1[C@@H](OCc2ccccc2)O[C@H](CO)[C@H](O)[C@@H]1O[C@@H]1O[C@H](CO)[C@H](O)C[C@H]1O [3-Deoxy-Galβ1–3GalNAcα-Bn]: 52%
CC(=O)N[C@H]1[C@@H](Oc2ccccc2[N+](=O)[O-])O[C@H](CO)[C@H](O)[C@@H]1O[C@@H]1O[C@H](CO)[C@H](O)[C@H](O)[C@H]1O [Galβ1–3GalNAcα-onp]: 100%
CC(=O)N[C@H]1[C@@H](Oc2ccc([N+](=O)[O-])cc2)O[C@H](CO)[C@H](O)[C@@H]1O[C@@H]1O[C@H](CO)[C@H](O)[C@H](O)[C@H]1O [Galβ1–3GalNAcα-pnp, reference compound]: 100 ^b %
CC(=O)N[C@H]1[C@H](OC[C@H]2O[C@H](OCc3ccccc3)[C@H](NC(C)=O)[C@@H](O[C@@H]3O[C@H](CO)[C@@H](O)[C@H](O)[C@H]3NC(C)=O)[C@H]2O)O[C@H](CO)[C@@H](O)[C@@H]1O [GlcNAcβ1–6(GlcNAcβ1–3)GalNAcα-Bn]: <1%
CO[C@H]1[C@@H](O)[C@@H](CO)O[C@@H](O[C@H]2[C@@H](O)[C@@H](CO)O[C@H](OCc3ccccc3)[C@@H]2NC(C)=O)[C@@H]1O [3-O-Methyl-Galβ1–3GalNAcα-Bn]: 41%

The record that follows has no C2GnT2 activity (%) shown yet.
QUERY: May I ask what C2GnT2 activity (%) has been recorded for CC(=O)N[C@H]1[C@@H](OCc2ccccc2)O[C@H](CO)[C@H](O)[C@@H]1O[C@@H]1O[C@H](C)[C@H](O)[C@H](O)[C@H]1O [6-Deoxy-Galβ1–3GalNAcαBn] ?
RESULT: <1%
